Test system: Plasmodium falciparum
Assay procedure: NOVARTIS: Inhibition of Plasmodium falciparum W2 (drug-resistant) proliferation in erythrocyte-based infection assay
Assay type: functional, organism-based
Settings: Plasmodium falciparum, W2; read-out: EC50
I'd appreciate it if you marked entries fulfilled when EC50 is lower than 300 nM and not fulfilled when it is not.

INSERT INTO results (compound, class) VALUES
  ('Cn1c(COc2ccc(Cl)cc2Cl)[n+](C)c2ccccc21', 'not fulfilled'),
  ('Cc1ccn2c(NC(C)(C)CC(C)(C)C)c(-c3ccccc3OC(=O)c3ccc(Cl)cc3)nc2c1', 'fulfilled'),
  ('COc1ccccc1N1CCN(Cc2cc(C(C)C)c(C)cc2O)CC1', 'fulfilled'),
  ('CCc1ccc(-n2c(C(CC)N(CCc3ccc(OC)c(OC)c3)C(=O)C(CC)c3ccccc3)nc3ccccc3c2=O)cc1 (stereo not given)', 'not fulfilled'),
  ('COc1cc(C(=O)Nc2c3c(nn2-c2cc(C)cc(C)c2)CSC3)cc(OC)c1OC', 'not fulfilled'),
  ('CC(C)CC(N)C(=O)N1CCn2c(nc(-c3ccccc3)c2Nc2ccc3c(c2)OCO3)C1 (stereo not given)', 'fulfilled'),
  ('COc1ccccc1C(NC(=O)c1cc(OC)c(OC)c(OC)c1)c1cc(Cl)c2cccnc2c1O (stereo not given)', 'not fulfilled'),
  ('CCOc1ccc(C(=O)N2CCN(Cc3ccccc3)CC2)cc1', 'not fulfilled'),
  ('Cc1ccc(O)c(NC(=O)c2cnn3c(C(F)(F)F)cc(-c4ccc(Br)cc4)nc23)c1', 'not fulfilled'),
  ('C#CCNC(=O)c1ccc(OC2CCN(CC3CCCCC3)CC2)c(Cl)c1', 'not fulfilled');

---

Assay procedure: NOVARTIS: Cytotoxicity against human hepatocellular carcinoma cell line (Huh7)
Assay type: toxicity, cell-based, Huh-7
Settings: Huh7 cells (hepatocellular carcinoma cell line)
Measured metric: CC50

INSERT INTO measurements (compound, measured_metric, assay_result) VALUES
  ('CNc1ccccc1C(=O)N(C)CCc1ccccc1', 'CC50', '> 10 µM'),
  ('O=C(NNc1cccc(F)n1)C(F)(F)F', 'CC50', '> 10 µM'),
  ('CC(=O)Nc1ccc(S(=O)(=O)N2CCC(c3nc(-c4cccnc4)no3)CC2)cc1', 'CC50', '> 100 µM'),
  ('CC[n+]1cc(C)ccc1C=Cc1ccc(N(C)C)cc1', 'CC50', '15.2 µM'),
  ('CCN1CCC(N2CCC(n3c(C4CCC4)nc4cc(F)ccc43)CC2)CC1', 'CC50', '21.5 µM'),
  ('Cn1c(=O)[nH]c(=O)c2c1nc(N1CCCCCC1)n2CC(O)COc1ccc([N+](=O)[O-])cc1 (stereo unspecified)', 'CC50', '> 100 µM'),
  ('Cc1nn(C)cc1-c1nc2cnccn2c1NCC1CCCO1 (stereo unspecified)', 'CC50', '> 10 µM'),
  ('CC(=O)N(C1=C(N(C)C)C(=O)c2ccccc2C1=O)c1cccc(O)c1', 'CC50', '> 10 µM'),
  ('O=C(NC1CCN(CC(O)CN(Cc2ccccc2)S(=O)(=O)c2ccccc2)C1)c1cccc2ccccc12 (stereo unspecified)', 'CC50', '> 10 µM'),
  ('COc1c([N+](=O)[O-])cc2c(c1Br)OC1(C=C2)N(C)c2ccccc2C1(C)C (stereo unspecified)', 'CC50', '> 10 µM'),
  ('O=C(Nc1cccc(Oc2ccccc2)c1)NC(CN1CCCC1)c1ccccc1 (stereo unspecified)', 'CC50', '11.8 µM');
